Provenance of the data: patent US10759803B2

System: Caco-2 monolayer
protocol: Caco-2 monolayer permeability screen
condition: table of derivatives
Would you kindly list A −>B Papp for each of these molecules?

Query :: A −>B Papp lookup needed for Cn1c(S)nc2c1c(=O)n(Cc1ccccc1)c(=O)n2C [Compound 38D-22] , thanks.
Result :: 10.0 10^−6 cm · s^−1

Query :: A −>B Papp lookup needed for Cn1c(=O)c2c(nc(S)n2C)n(C)c1=O [Compound 38D-16] , thanks.
Result :: 0.9 10^−6 cm · s^−1

Query :: A −>B Papp lookup needed for CNC(=C[N+](=O)[O-])NCCSCc1ccc(CN(C)C)o1 [Ranitidine, reference compound] , thanks.
Result :: 0.2 10^−6 cm · s^−1

Query :: A −>B Papp lookup needed for Cn1c(=O)[nH]c(=O)c2c1nc(S)n2CC(O)COc1ccc(Cl)cc1 (stereo not shown) , thanks.
Result :: 1.1 10^−6 cm · s^−1
